Give melting point for every item shown.

// lookup melting point for `N#Cc1cc(F)ccc1Oc1cccc(C(F)(F)F)c1` 51 °C

// lookup melting point for `CCCn1c(=O)c2c(nc(C=Cc3cc(OC)c(OC)cc3S(N)(=O)=O)n2C)n(CCC)c1=O` 266 to 268 °C

// lookup melting point for `CC(C)(C)NC(=O)c1ccccc1Cc1ccccc1` 91 to 92 °C

// lookup melting point for `CC(=O)NCCNCc1ccc(-c2cc3ncnc(Nc4ccc5[nH]ccc5c4)c3s2)cc1` 142 to 155 °C

// lookup melting point for CC(=O)NCCC1CCc2ccn3ncc(C)c3c21 (stereo not given) 121 to 122 °C

// lookup melting point for CC(C)(C)NC(=O)[C@@H]1CC(Cl)CN1C(=O)C(O)[C@H](Cc1ccccc1)NC(=O)[C@H](CC(N)=O)NC(=O)COc1ccc(NC(=O)OCc2ccccc2)cc1 (stereo not given in full) 113 to 115 °C

// lookup melting point for `Cc1c(C#N)c(-c2ccc(C#N)cc2)c(C)n1Cc1ccc(Cl)c(CO)c1` 189 °C

// lookup melting point for CC(O)CN1C(C)(C)CC(O)CC1(C)C (stereo not given) 97 to 98 °C

// lookup melting point for `c1ccc2c(c1)CC1(CCN(CCc3c[nH]c4ccccc34)CC1)O2` 167 to 169 °C

// lookup melting point for `CCCc1nc(C)nc(O)c1Cc1ccc([N+](=O)[O-])cc1` 200 °C

// lookup melting point for CC(=O)Oc1ccc2c(c1)CCC1C2CCC2(C)C1CC(O)C2N(C)C (stereo not given) 173 to 175 °C

// lookup melting point for `COc1cc(OC)c2c(C)c(C(C)=O)c(=O)oc2c1` 166 to 167 °C

// lookup melting point for `CNc1ccn2c(C(=O)c3ccc([N+](=O)[O-])c(OC)c3)c(C)c(C(=O)OCc3ccccc3)c2c1` 228 °C

// lookup melting point for `Fc1ccc(-c2cnc(SC(F)(F)F)nc2-c2ccc(F)cc2)cc1` 80 to 83 °C

// lookup melting point for CS(=O)(=O)c1ccc(-c2cnn(CC(F)(F)F)c(=O)c2OC2CCc3ccccc32)cc1 (stereo not given) 113 to 114 °C

// lookup melting point for `CC(C)c1cccc(C(C)C)c1NC(=O)NCC1(c2ccc(N(C)C)cc2)CCCC1` 132 to 133 °C

// lookup melting point for `CC(C)n1nc(-c2nc(Br)c(N=S(C)C)nc2-c2ccccc2)ccc1=O` 220 to 224 °C

// lookup melting point for `COc1cc(C(=O)C=Cc2ccncc2)cc(OC)c1OC` 127 to 129 °C

// lookup melting point for `COc1ccccc1Sc1ccc(C=O)c(Cl)c1Cl` 137 to 139 °C

// lookup melting point for CCC(C)OC(=O)C(S)(C#N)C1=NC(C)Cc2cc(OC)c(OC)cc21 (stereo not given) 113 to 114 °C

The reported numbers originate from a melting point compilation (Tetko et al.; mined from patent text by program, amines drawn as free bases though some values may be those of a salt).
